Test system: TNBS-induced colitis in BDF1 mice
Procedure details: TNBS-induced colitis in mice (in vivo iv)
Design: species or system mouse
Run conditions: 5 mg/kg orally, TNBS-induced colitis, mice, 2 days
Recorded metric: ulcer grade and epithelial repair compared to the vehicle control

Chemical smiles: COCCOCCOCCNC(=O)c1cc(Nc2cc(Oc3ccc(NC(=O)Nc4cc(C(C)(C)C)cc(NS(C)(=O)=O)c4OC)c4ccccc34)ccn2)cc(OC)c1
Readout value: marked improvements
--
Chemical smiles: C#Cc1cc(Nc2nccc(Oc3ccc(NC(=O)Nc4cc(C(C)(C)C)cc(NS(C)(=O)=O)c4OC)c4ccccc34)n2)cc(C(=O)NCCOCCOCCOC)c1
Readout value: marked improvements
--
Chemical smiles: COCCOCCOCCOc1cc(Nc2cc(Oc3ccc(NC(=O)Nc4cc(C(C)(C)C)cc(C(N)=O)c4OC)c4ccccc34)ccn2)cc(OC)c1
Readout value: marked improvements
